# assay-procedure: Aqueous solubility of compound at pH 7.4
# Format: physicochemical
# cond: aqueous medium
observation-type: solubility

q: Entry C[C@@H]1Cc2cc(C(N)=O)cnc2N1 has what solubility?
a: ≥ 50 µg/mL

* * *

# assay-procedure: Half life in C57BL6/N mouse at 50 mg/kg, po measured upto 24 hrs by LC-MS/MS analysis
# Format: ADME, organism-based
# cond: in vivo
observation-type: half-life (h)
Provide the reading as a plain figure in h.

q: Requested read-out: half-life. Entry: NC(=O)c1cnc2c(c1)CCN2
a: 1.46

q: For the compound NC(=O)c1cnc2c(c1Cl)CCN2 , what half-life is on record?
a: 2.87

q: So what does the record say about half-life for Cc1c(C(N)=O)cnc2c1CCN2 ?
a: 0.543

q: // half-life lookup, key: C[C@@H]1Cc2cc(C(N)=O)cnc2N1
a: 2.89

q: Which half-life is reported for this compound? CNc1cc(C)c(C(N)=O)cn1
a: 1.79
